Just for reference, paper PMC9516332 is where these values come from.

Here the recorded inhibition at 1 µM is given for each entry.
TARGET_OR_TEST_SYSTEM: panel of 255 wild-type kinases (Homo sapiens, UniProt P54753)
Sequence (P54753 34-998): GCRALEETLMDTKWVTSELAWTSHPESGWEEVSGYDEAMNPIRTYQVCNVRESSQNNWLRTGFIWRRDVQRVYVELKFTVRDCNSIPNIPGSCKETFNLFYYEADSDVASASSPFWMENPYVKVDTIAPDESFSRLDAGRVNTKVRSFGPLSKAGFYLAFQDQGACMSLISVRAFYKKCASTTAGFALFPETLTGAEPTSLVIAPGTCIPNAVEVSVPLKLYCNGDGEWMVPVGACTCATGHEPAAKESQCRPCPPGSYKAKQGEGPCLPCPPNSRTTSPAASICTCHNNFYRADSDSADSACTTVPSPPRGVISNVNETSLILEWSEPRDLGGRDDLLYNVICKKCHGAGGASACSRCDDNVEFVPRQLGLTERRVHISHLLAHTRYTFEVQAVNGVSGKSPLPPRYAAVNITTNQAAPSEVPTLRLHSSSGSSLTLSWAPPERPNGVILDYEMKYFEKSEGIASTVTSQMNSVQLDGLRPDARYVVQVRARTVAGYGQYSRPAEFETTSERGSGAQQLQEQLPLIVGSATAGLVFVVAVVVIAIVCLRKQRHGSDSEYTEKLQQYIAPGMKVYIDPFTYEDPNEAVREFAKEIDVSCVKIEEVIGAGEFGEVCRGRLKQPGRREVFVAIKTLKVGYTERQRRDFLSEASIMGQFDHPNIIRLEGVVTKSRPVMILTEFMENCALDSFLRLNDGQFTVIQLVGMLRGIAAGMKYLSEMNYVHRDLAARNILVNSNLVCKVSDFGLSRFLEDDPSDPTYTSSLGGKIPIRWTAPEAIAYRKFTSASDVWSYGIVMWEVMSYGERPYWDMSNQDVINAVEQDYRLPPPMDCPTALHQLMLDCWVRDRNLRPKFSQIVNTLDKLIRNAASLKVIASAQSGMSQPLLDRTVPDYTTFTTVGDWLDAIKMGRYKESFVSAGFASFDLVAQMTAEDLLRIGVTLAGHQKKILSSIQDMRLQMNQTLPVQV
EXPERIMENTAL_PROTOCOL: Kinase panel profiling at 1 µmol/L (MSA or IMAP), percentage inhibition
Type: biochemical
CONDITIONS: kinase EPHB3; 1 µmol/L single concentration; read-out: %-inhibition at 1 µmol/L, EPHB3

{"columns": ["CPD_SMILES", "TARGET_OR_TEST_SYSTEM", "OUTPUT_UNIT", "inhibition at 1 µM"],
 "data": [
  ["CN1CCN(c2ccc(C(=O)Nc3n[nH]c4ccc(Cc5cc(F)cc(F)c5)cc34)c(NC3CCOCC3)c2)CC1", "panel of 255 wild-type kinases (Homo sapiens, UniProt P54753)", "%", 8],
  ["CCN1CCN(c2ccc(Nc3cc(N(C)C(=O)Nc4c(Cl)c(OC)cc(OC)c4Cl)ncn3)cc2)CC1", "panel of 255 wild-type kinases (Homo sapiens, UniProt P54753)", "%", -1],
  ["Cn1cc(-c2cc3c(N4CCN(c5ncc([C@@](C)(N)c6ccc(F)cc6)cn5)CC4)ncnn3c2)cn1", "panel of 255 wild-type kinases (Homo sapiens, UniProt P54753)", "%", 3]
]}
